Target or test system: importin subunit α-3 (KPNA4) ARM domain
Test: fluorescence polarisation displacement
Recorded conditions: major pocket

>  <Substance>
ABRAXAS1_(349-364) wild-type peptide R361Q

>  <Kd, µM>
75

$$$$
